Entries below carry reported pIC50 on UniProt:Q994Q3.
Remember, pIC50 is on a log scale: it is -log10 of the molar concentration.

[[record]]
compound = "CCC[C@@]1(CCc2ccccc2)CC(O)=C([C@H](CC)c2cccc(NS(=O)(=O)c3ccc(C(F)(F)F)cn3)c2)C(=O)O1 [TPV, Tipranavir]"
measured_attribute = "pIC50"
observed_value = 8.81

[[record]]
compound = "CC(C)CN(C[C@@H](O)[C@H](Cc1ccccc1)NC(=O)O[C@H]1CCOC1)S(=O)(=O)c1ccc(N)cc1 [APV, Amprenavir]"
measured_attribute = "pIC50"
observed_value = 9.09


Could you now consider this next compound?
Quick note, pIC50 for CC(C)CN(C[C@@H](O)[C@H](Cc1ccccc1)NC(=O)O[C@H]1CO[C@H]2OCC[C@H]21)S(=O)(=O)c1ccc(N)cc1 [DRV, Darunavir] landed at 8.97
